System: PBMCs
assay-protocol: IL-2 and IFN gamma release in CD3/CD28 stimulated PBMC cells
Type: cell-based
cond: Homo sapiens, IL-2, read-out: IC50 Values for Inhibition of Cytokine Release PBMCs IL-2
attribute-measured: IC50 (nM)

COc1cc(Nc2nccc(Oc3ccc(NC(=O)Nc4cc([Si](C)(C)C)nn4-c4ccc(C)cc4)c4ccccc34)n2)cc(C(=O)NCCN2CCOCC2)c1: 28.2
Cc1cc(Nc2nccc(Oc3ccc(NC(=O)Nc4cc([Si](C)(C)C)nn4-c4ccc(OCCN5CCOCC5)cc4)c4ccccc34)n2)cc2cn[nH]c12: 30.7
Cc1ccc(-n2nc([Si](C)(C)C)cc2NC(=O)Nc2ccc(Oc3ccnc(Nc4cccc(OCCN5CCOCC5)c4)n3)c3ccccc23)cc1: 15.7

* * *

test-system: p38 MAPKα isoform (MAPK14) (Homo sapiens (Human), UniProt Q16539)
Sequence (Q16539 whole entry, canonical isoform): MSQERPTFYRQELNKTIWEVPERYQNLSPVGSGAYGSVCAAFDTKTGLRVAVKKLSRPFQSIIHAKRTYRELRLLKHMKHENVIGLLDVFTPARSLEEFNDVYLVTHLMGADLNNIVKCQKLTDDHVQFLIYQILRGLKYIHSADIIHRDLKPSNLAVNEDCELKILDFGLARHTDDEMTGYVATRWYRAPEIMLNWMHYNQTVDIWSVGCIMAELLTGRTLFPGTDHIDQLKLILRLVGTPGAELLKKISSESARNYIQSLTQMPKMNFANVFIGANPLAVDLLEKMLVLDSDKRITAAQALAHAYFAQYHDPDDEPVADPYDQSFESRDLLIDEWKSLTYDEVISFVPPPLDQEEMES
assay-protocol: p38 MAPKα enzyme inhibition (Z-LYTE FRET)
attribute-measured: IC50 (nM)

Cc1ccc(-n2nc([Si](C)(C)C)cc2NC(=O)Nc2ccc(Oc3ccnc(Nc4ccc5[nH]ncc5c4)n3)c3ccccc23)cc1: 380
COc1cc(Nc2nccc(Oc3ccc(NC(=O)Nc4cc([Si](C)(C)C)nn4-c4ccc(C)cc4)c4ccccc34)n2)cc(C(=O)NCCN2CCOCC2)c1: 142
C[Si](C)(C)c1cc(NC(=O)Nc2ccc(Oc3ccnc(Nc4ccccc4)n3)c3ccccc23)n(-c2ccc(OCCN3CCOCC3)cc2)n1: 347
Cc1ccc(-n2nc([Si](C)(C)C)cc2NC(=O)Nc2ccc(Oc3ccnc(Nc4ccccc4)n3)c3ccccc23)cc1: 152
COCCOCCOCCOc1cc(Nc2nccc(Oc3ccc(NC(=O)Nc4cc([Si](C)(C)C)nn4-c4ccc(C)cc4)c4ccccc34)n2)cc(OC)c1: 204
Cc1cc(Nc2nccc(Oc3ccc(NC(=O)Nc4cc([Si](C)(C)C)nn4-c4ccc(OCCN5CCOCC5)cc4)c4ccccc34)n2)cc2cn[nH]c12: 253
Cc1ccc(-n2nc([Si](C)(C)C)cc2NC(=O)Nc2ccc(Oc3ccnc(Nc4cc(C)c5[nH]ncc5c4)n3)c3ccccc23)cc1: 358
Cc1ccc(-n2nc([Si](C)(C)C)cc2NC(=O)Nc2ccc(Oc3ccnc(Nc4cccc(OCCN5CCOCC5)c4)n3)c3ccccc23)cc1: 314
Cc1ccc(-n2nc([Si](C)(C)C)cc2NC(=O)Nc2ccc(Oc3ccnc(Nc4ccc5c(c4)NC(=O)C5)n3)c3ccccc23)cc1: 541
COc1ccc(-n2nc([Si](C)(C)C)cc2NC(=O)Nc2ccc(Oc3ccnc(Nc4ccccc4)n3)c3ccccc23)cn1: 329

* * *

Consider the following compounds and their measured pIC50 readings.
Test system: d-U937 cells
assay-protocol: LPS-induced TNFα/IL-8 release in d-U937 cells
Type: cell-based
cond: Homo sapiens, dU937; LPS-stimulated d-U937 cells, TNFα; method describes REC50 relative to BIRB796; read-out: IC50 Values for Inhibition of Cytokine Release dU937 cells TNFα
pIC50: −log10 of the molar value.
attribute-measured: pIC50

Cc1ccc(-n2nc([Si](C)(C)C)cc2NC(=O)Nc2ccc(Oc3ccnc(Nc4cc(C)c5[nH]ncc5c4)n3)c3ccccc23)cc1 [Example 9]: 8.92
Cc1ccc(-n2nc([Si](C)(C)C)cc2NC(=O)Nc2ccc(Oc3ccnc(Nc4ccc5[nH]ncc5c4)n3)c3ccccc23)cc1 [Example 7]: 8.72
Cc1ccc(-n2nc([Si](C)(C)C)cc2NC(=O)Nc2ccc(Oc3ccnc(Nc4cccc(OCCN5CCOCC5)c4)n3)c3ccccc23)cc1 [Example 6]: 8.82

* * *

test-system: Syk (Homo sapiens (Human), UniProt P43405)
pIC50: −log10 of the molar value.
pIC50 below 7 gives condition not met; pIC50 at or above it gives condition met.

C[Si](C)(C)c1cc(NC(=O)Nc2ccc(Oc3ccnc(Nc4ccccc4)n3)c3ccccc23)n(-c2ccc(OCCN3CCOCC3)cc2)n1: condition not met
Cc1cc(Nc2nccc(Oc3ccc(NC(=O)Nc4cc([Si](C)(C)C)nn4-c4ccc(OCCN5CCOCC5)cc4)c4ccccc34)n2)cc2cn[nH]c12: condition met
Cc1ccc(-n2nc([Si](C)(C)C)cc2NC(=O)Nc2ccc(Oc3ccnc(Nc4ccc5c(c4)NC(=O)C5)n3)c3ccccc23)cc1: condition not met
Cc1ccc(-n2nc([Si](C)(C)C)cc2NC(=O)Nc2ccc(Oc3ccnc(Nc4cccc(OCCN5CCOCC5)c4)n3)c3ccccc23)cc1: condition met
COc1cc(Nc2nccc(Oc3ccc(NC(=O)Nc4cc([Si](C)(C)C)nn4-c4ccc(C)cc4)c(Cl)c3Cl)n2)cc(OCCN2CCOCC2)c1: condition met
Cc1ccc(-n2nc([Si](C)(C)C)cc2NC(=O)Nc2ccc(Oc3ccnc(Nc4ccc5onc(N)c5c4)n3)c3ccccc23)cc1: condition not met
Cc1ccc(-n2nc([Si](C)(C)C)cc2NC(=O)Nc2ccc(Oc3ccnc(Nc4ccc5[nH]ncc5c4)n3)c3ccccc23)cc1: condition not met
COc1cc(Nc2nccc(Oc3ccc(NC(=O)Nc4cc([Si](C)(C)C)nn4-c4ccc(C)cc4)c4ccccc34)n2)cc(C(=O)NCCN2CCOCC2)c1: condition met
Cc1ccc(-n2nc([Si](C)(C)C)cc2NC(=O)Nc2ccc(Oc3ccnc(Nc4cc(C)c5[nH]ncc5c4)n3)c3ccccc23)cc1: condition not met
COc1ccc(-n2nc([Si](C)(C)C)cc2NC(=O)Nc2ccc(Oc3ccnc(Nc4ccccc4)n3)c3ccccc23)cn1: condition not met

* * *

System: d-U937 cells
assay-protocol: LPS-induced TNFα/IL-8 release in d-U937 cells
Format: cell-based
cond: Homo sapiens, dU937; LPS-stimulated d-U937 cells, TNFα; method describes REC50 relative to BIRB796; read-out: IC50 Values for Inhibition of Cytokine Release dU937 cells TNFα
Rule for this label: Criterion met means IC50 is less than 2 nM; Criterion not met means IC50 is at least 2 nM.

COc1cc(Nc2nccc(Oc3ccc(NC(=O)Nc4cc([Si](C)(C)C)nn4-c4ccc(C)cc4)c4ccccc34)n2)cc(OCCN2CCOCC2)c1 [Example 13]: Criterion met
Cc1ccc(-n2nc([Si](C)(C)C)cc2NC(=O)Nc2ccc(Oc3ccnc(Nc4ccc5c(c4)NC(=O)C5)n3)c3ccccc23)cc1 [Example 10]: Criterion met
COc1ccc(-n2nc([Si](C)(C)C)cc2NC(=O)Nc2ccc(Oc3ccnc(Nc4ccccc4)n3)c3ccccc23)cn1 [Example 2]: Criterion met
Cc1ccc(-n2nc([Si](C)(C)C)cc2NC(=O)Nc2ccc(Oc3ccnc(Nc4ccccc4)n3)c3ccccc23)cc1 [Example 1]: Criterion not met

* * *

Entries with reported IC50 on GSK 3α (Homo sapiens (Human), UniProt P49840)
Sequence (P49840 whole entry): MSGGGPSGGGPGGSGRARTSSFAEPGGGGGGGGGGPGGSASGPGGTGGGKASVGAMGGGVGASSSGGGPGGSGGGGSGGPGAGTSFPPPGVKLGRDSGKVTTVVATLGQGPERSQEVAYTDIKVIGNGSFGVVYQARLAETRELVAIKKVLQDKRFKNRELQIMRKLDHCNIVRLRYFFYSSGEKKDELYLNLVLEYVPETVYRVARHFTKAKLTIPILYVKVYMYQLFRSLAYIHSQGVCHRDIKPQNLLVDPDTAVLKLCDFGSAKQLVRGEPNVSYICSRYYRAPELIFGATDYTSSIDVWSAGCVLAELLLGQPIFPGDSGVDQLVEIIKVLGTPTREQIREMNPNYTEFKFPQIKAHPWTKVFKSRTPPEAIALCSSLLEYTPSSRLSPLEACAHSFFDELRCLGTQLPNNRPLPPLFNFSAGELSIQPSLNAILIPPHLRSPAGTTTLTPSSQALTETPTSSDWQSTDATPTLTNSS
attribute-measured: IC50 (µM)

C[Si](C)(C)c1cc(NC(=O)Nc2ccc(Oc3ccnc(Nc4ccccc4)n3)c3ccccc23)n(-c2ccc(OCCN3CCOCC3)cc2)n1: 4.99
COc1ccc(-n2nc([Si](C)(C)C)cc2NC(=O)Nc2ccc(Oc3ccnc(Nc4ccccc4)n3)c3ccccc23)cn1: 3.24
COc1cc(Nc2nccc(Oc3ccc(NC(=O)Nc4cc([Si](C)(C)C)nn4-c4ccc(C)cc4)c4ccccc34)n2)cc(OCCN2CCOCC2)c1: 5.64
COc1cc(Nc2nccc(Oc3ccc(NC(=O)Nc4cc([Si](C)(C)C)nn4-c4ccc(C)cc4)c4ccccc34)n2)cc(C(=O)NCCN2CCOCC2)c1: 1.92
Cc1ccc(-n2nc([Si](C)(C)C)cc2NC(=O)Nc2ccc(Oc3ccnc(Nc4ccc5onc(N)c5c4)n3)c3ccccc23)cc1: 2.15
COc1cc(Nc2nccc(Oc3ccc(NC(=O)Nc4cc([Si](C)(C)C)nn4-c4ccc(C)cc4)c4ccccc34)n2)cc(C(=O)NC[C@H](O)[C@@H](O)[C@H](O)[C@H](O)CO)c1: 6.73
Cc1ccc(-n2nc([Si](C)(C)C)cc2NC(=O)Nc2ccc(Oc3ccnc(Nc4cccc(OCCN(C)C)c4)n3)c3ccccc23)cc1: 0.69
COCCOCCOCCOc1cc(Nc2nccc(Oc3ccc(NC(=O)Nc4cc([Si](C)(C)C)nn4-c4ccc(C)cc4)c4ccccc34)n2)cc(OC)c1: 11.6

* * *

These compounds were tested on Syk (Homo sapiens (Human), UniProt P43405); IC50 is the recorded read-out.
attribute-measured: IC50

Cc1ccc(-n2nc([Si](C)(C)C)cc2NC(=O)Nc2ccc(Oc3ccnc(Nc4ccccc4)n3)c3ccccc23)cc1 [Example 1]: > 1000 nM
CC[Si](C)(C)c1cc(NC(=O)Nc2ccc(Oc3ccnc(Nc4ccccc4)n3)c3ccccc23)n(-c2ccc(C)cc2)n1 [Example 16]: > 1000 nM
Cc1ccc(-n2nc([Si](C)(C)C)cc2NC(=O)Nc2ccc(Oc3ccnc(Nc4ccccn4)n3)c3ccccc23)cc1 [Example 14]: > 1000 nM

* * *

Catalogue of IC50 values
Tested on: PBMCs
assay-protocol: IL-2 and IFN gamma release in CD3/CD28 stimulated PBMC cells
Assay type: cell-based
cond: Homo sapiens, IL-2, read-out: IC50 Values for Inhibition of Cytokine Release PBMCs IL-2
attribute-measured: IC50 (nM)

Cc1ccc(-n2nc([Si](C)(C)C)cc2NC(=O)Nc2ccc(Oc3ccnc(Nc4ccc5c(c4)NC(=O)C5)n3)c3ccccc23)cc1: 196
COCCOCCOCCOc1cc(Nc2nccc(Oc3ccc(NC(=O)Nc4cc([Si](C)(C)C)nn4-c4ccc(C)cc4)c4ccccc34)n2)cc(OC)c1: 137
COc1cc(Nc2nccc(Oc3ccc(NC(=O)Nc4cc([Si](C)(C)C)nn4-c4ccc(C)cc4)c4ccccc34)n2)cc(OCCN2CCOCC2)c1: 3.9

Data provenance is patent US9783556B2.
